- test_target: mu receptor (Rattus norvegicus, UniProt P33535)
- Construct: rat whole brain minus cerebellum for mu was homogenized; from tissue; host or cells: brain of male Sprague Dawley rats, whole brain minus cerebellum, homogenate fraction
- Sequence (P33535 whole entry): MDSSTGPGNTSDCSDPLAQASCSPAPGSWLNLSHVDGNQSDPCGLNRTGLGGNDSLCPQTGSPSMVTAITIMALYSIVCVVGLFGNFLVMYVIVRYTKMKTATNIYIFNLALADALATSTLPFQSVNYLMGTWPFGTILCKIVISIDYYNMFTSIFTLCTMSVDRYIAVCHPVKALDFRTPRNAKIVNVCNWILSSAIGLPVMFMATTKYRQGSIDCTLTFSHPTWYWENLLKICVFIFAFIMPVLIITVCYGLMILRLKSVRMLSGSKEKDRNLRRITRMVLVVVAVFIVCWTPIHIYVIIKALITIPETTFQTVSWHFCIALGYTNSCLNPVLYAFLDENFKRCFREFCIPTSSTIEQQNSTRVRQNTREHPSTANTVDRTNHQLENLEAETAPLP
- measurement_notes: opioid receptor binding assay, [3H] NAL (tritiated naloxone), mu receptor
- Design: species or system rat (Male Sprague Dawley), brain minus cerebellum
- condition_details: 20 min, read-out: % displacement at 100 nM
Structures can show the parent of a compound that is named as a salt.
attribute_measured: inhibition at 0.1 µM (%)

molecule: CCc1noc(CNC(=O)C(Cc2ccccc2)CN2CC[C@@](C)(c3cccc(O)c3)[C@@H](C)C2)n1 (relative stereo)
experimental_result: 94

molecule: C[C@H]1CN(CC(Cc2ccccc2)C(=O)NCC(=O)O)CC[C@@]1(C)c1cccc(O)c1 (single isomer, unassigned; (+)) [Example 97E, monohydrate]
experimental_result: 90

molecule: C[C@H]1CN(CC(Cc2ccccc2)C(=O)NCC(=O)O)CC[C@@]1(C)c1cccc(O)c1 (stereo partly drawn) [Example 44, monohydrate]
experimental_result: 94

molecule: C[C@@H]1CN(CC(Cc2ccccc2)C(=O)NCC(=O)O)CC[C@]1(C)c1cccc(O)c1 (single isomer, unassigned) [Example 98E]
experimental_result: 87

molecule: C[C@H]1CN(CC(Cc2ccccc2)C(=O)NCC(=O)NCC2CCCCC2)CC[C@@]1(C)c1cccc(O)c1 (relative stereo)
experimental_result: 94

molecule: CC(C)COC(=O)CNC(=O)C(Cc1ccccc1)CN1CC[C@@](C)(c2cccc(O)c2)[C@@H](C)C1 (stereo partly drawn) [Example 54, monohydrochloride]
experimental_result: 98

----------
Catalogue of inhibition at 0.01 µM values
- test_target: mu receptor (Rattus norvegicus, UniProt P33535)
- Construct: rat whole brain minus cerebellum for mu was homogenized; from tissue; host or cells: brain of male Sprague Dawley rats, whole brain minus cerebellum, homogenate fraction
- measurement_notes: opioid receptor binding assay, [3H] NAL (tritiated naloxone), mu receptor
- Set-up: species or system rat (Male Sprague Dawley), brain minus cerebellum
- condition_details: 20 min, read-out: % displacement at 10 nM, 10 nM test compound; [3H] naloxone 0.5 nM
Counter-ions that a name gives are not always drawn.
attribute_measured: inhibition at 0.01 µM (%)

compound: C[C@H]1CN(CC(CC2CCCCC2)C(=O)NCC(=O)O)CC[C@@]1(C)c1cccc(O)c1 (relative stereo) [Example 30, monohydrate]
experimental_result: 89

compound: CCOC(=O)CNC(=O)CNC(=O)C(Cc1ccccc1)CN1CC[C@@](C)(c2cccc(O)c2)[C@@H](C)C1 (relative stereo) [Example 67, monohydrochloride]
experimental_result: 79

compound: C[C@H]1CN(CC(Cc2ccccc2)C(=O)NCC(=O)N(C)C)CC[C@@]1(C)c1cccc(O)c1 (stereo partly drawn) [Example 47, monohydrochloride monohydrate]
experimental_result: 89

compound: C[C@H]1CN(CC(CC2CCCCC2)C(=O)NCCCC(N)=O)CC[C@@]1(C)c1cccc(O)c1 (stereo partly drawn) [Example 40, hydrochloride]
experimental_result: 95

compound: CCNC(=O)CCCNC(=O)C(Cc1ccccc1)CN1CC[C@@](C)(c2cccc(O)c2)[C@@H](C)C1 (stereo partly drawn) [Example 64, monohydrochloride]
experimental_result: 94

compound: CCNC(=O)CNC(=O)C(CC1CCCCC1)CN1CC[C@@](C)(c2cccc(O)c2)[C@@H](C)C1 (relative stereo) [Example 31, monohydrochloride monohydrate]
experimental_result: 100
